As an illustration, consider measured pIC50 for compounds on Full length DGKα (D21-10BG, SignalChem) (Homo sapiens, UniProt P23743).
Sequence (P23743 whole entry): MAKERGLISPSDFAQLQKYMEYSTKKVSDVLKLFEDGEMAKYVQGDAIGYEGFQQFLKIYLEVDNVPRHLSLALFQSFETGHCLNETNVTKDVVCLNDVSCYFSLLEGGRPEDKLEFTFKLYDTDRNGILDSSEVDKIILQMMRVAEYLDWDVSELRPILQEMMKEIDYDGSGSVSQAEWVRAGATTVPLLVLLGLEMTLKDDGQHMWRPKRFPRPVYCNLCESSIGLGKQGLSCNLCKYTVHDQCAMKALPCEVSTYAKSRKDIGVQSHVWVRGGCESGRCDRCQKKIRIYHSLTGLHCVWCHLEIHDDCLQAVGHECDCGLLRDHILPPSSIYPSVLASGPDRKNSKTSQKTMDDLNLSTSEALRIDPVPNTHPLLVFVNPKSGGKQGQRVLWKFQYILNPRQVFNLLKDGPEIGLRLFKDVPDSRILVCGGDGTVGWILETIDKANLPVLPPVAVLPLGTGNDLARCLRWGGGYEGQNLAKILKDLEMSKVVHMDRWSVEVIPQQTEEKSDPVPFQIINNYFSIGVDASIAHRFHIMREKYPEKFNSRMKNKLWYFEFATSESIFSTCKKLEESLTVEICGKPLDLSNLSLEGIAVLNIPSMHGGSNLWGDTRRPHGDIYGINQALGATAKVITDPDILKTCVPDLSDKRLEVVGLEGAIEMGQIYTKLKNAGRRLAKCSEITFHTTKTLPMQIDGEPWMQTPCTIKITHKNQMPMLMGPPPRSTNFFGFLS
Give bare numbers, as −log10 of the molar value.

List the reported pIC50 of each compound below.
1. CC[C@H]1CN(C(C)c2ccc(C(F)(F)F)cc2)[C@H](CC)CN1c1nc(=O)n(C)c2c1nc(CC#N)n2C (single isomer, unassigned) [Compound A149a]
2. CC[C@@H]1CN(c2nc(=O)n(C)c3c2nc(CC#N)n3C)[C@@H](C)CN1C(C)c1ccc2c(n1)OC(C)(C)CO2 (mixture of isomers) [Compound A159]
3. CCn1c(CC#N)nc2c(N3C[C@@H](C)N(C(C)c4ccc5c(c4)OC4(CCC4)O5)C[C@@H]3C)nc(=O)n(C)c21 (single isomer, unassigned) [Compound A169b]
4. CCn1c(CC#N)nc2c(N3C[C@@H](C)N(C(C)c4ccc5c(c4)OC(C)(C)CO5)C[C@@H]3C)nc(=O)n(C)c21 (single isomer, unassigned) [Compound A60a]
5. CCn1c(CC#N)nc2c(N3C[C@@H](C)N(C(C)c4cc5c(cc4F)OCC(C)(C)O5)C[C@@H]3C)nc(=O)n(C)c21 (single isomer, unassigned) [Compound A157b]
6. CC(c1ccc2nccnc2c1)N1C[C@H](C)N(c2cc(=O)n(C)c3sc(CC#N)nc23)C[C@H]1C (single isomer, unassigned) [Compound A194b]
7. CCn1c(CC#N)nc2c(N3C[C@@H](C)N(C(C)c4cccc(C(C)C)c4)C[C@@H]3C)nc(=O)n(C)c21 (single isomer, unassigned) [Compound A108b]
8. CC(c1ccc2c(c1)OC(C)(C)CO2)N1C[C@H](C)N(c2nc(=O)n(C)c3c2nc(CC#N)n3C)C[C@H]1C (single isomer, unassigned) [Compound A59b]

5.79
4.50
4.11
4.14
4.25
5.15
4.02
4.85

List the reported pIC50 of each compound below.
1. CC(c1ccc2c(c1)OC(C)(C)O2)N1C[C@H](C)N(c2nc(=O)n(C)c3c2nc(CC#N)n3CC(F)F)C[C@H]1C (stereo partly shown) [Compound A166]
2. CCn1c(CC#N)nc2c(N3C[C@@H](C)N(C(C)c4cccc(C(C)C)c4)C[C@@H]3C)nc(=O)n(C)c21 (single isomer, unassigned) [Compound A108a]
3. COC[C@H]1CN(C(C)c2ccc3c(c2)OC(C)(C)CO3)[C@H](C)CN1c1nc(=O)n(C)c2c1nc(CC#N)n2C (single isomer, unassigned) [Compound A12a]
4. CC[C@@H]1CN(c2nc(=O)n(C)c3c2nc(CC#N)n3CC)[C@@H](C)CN1C(C)c1ccc2c(n1)OC(C)(C)CO2 (single isomer, unassigned) [Compound A158a]
5. CC(c1nc2c(cc1F)OCC(C)(C)O2)N1C[C@H](C)N(c2nc(=O)n(C)c3c2nc(CC#N)n3C)C[C@H]1C (stereo partly shown) [Compound A162]
6. COCc1cc(F)ccc1C(C)N1C[C@H](C)N(c2nc(=O)n(C)c3c2nc(CC#N)n3C)C[C@H]1C (single isomer, unassigned) [Compound A27b]

4.58
4.19
4.73
4.21
4.22
4.00

Would you mind telling me what pIC50 value was observed for CCn1c(CC#N)nc2c(N3C[C@@H](C)N(C(C)c4ccc5c(c4)OC(F)(F)CO5)C[C@@H]3C)nc(=O)n(C)c21 (single isomer, unassigned) [Compound A80a] ?
4.18
